Biological target: furin, P09958;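 further: purified furin at 1:10 enzyme:substrate in 50 mM HEPES pH 7.5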
Sequence (P09958 whole entry): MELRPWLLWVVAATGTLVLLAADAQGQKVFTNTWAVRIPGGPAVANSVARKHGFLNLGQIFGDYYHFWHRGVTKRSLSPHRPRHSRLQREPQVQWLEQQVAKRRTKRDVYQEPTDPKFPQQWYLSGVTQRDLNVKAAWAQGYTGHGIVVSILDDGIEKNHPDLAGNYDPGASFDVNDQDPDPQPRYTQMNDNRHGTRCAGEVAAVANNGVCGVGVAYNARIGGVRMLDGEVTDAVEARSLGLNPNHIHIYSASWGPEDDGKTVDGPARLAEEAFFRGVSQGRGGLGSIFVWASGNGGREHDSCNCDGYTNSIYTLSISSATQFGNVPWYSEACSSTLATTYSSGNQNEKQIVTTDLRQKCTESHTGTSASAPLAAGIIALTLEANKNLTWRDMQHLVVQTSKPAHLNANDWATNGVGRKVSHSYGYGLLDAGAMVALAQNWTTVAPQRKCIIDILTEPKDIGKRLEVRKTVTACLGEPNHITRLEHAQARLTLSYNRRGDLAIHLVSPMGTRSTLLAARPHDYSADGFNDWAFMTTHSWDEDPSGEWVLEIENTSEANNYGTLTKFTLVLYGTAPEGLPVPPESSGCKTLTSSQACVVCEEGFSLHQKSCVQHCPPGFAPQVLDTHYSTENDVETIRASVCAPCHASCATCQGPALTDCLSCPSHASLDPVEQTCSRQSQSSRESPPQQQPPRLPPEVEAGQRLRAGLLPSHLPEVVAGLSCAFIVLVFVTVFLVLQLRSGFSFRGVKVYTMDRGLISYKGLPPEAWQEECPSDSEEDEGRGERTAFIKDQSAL
Assay: furin cleavage Z-score vs untreated control; higher = more cleavage, active = 3.5 or more, inactive = 1 or less, 8 variable residues between constant flanks
Conditions: 7.5 min
The list shows a part of the results. How many sequences the whole screen found active is unknown.
Label scheme for furin cleavage Z-score: lower = under 0.7, middle = from 0.7 up to 2, upper = 2 and over

For the record CARQVRCVGNAGNASASA [FS-3045] , report the class its furin cleavage Z-score corresponds to.
upper

Do the same for CAALAAYCLSAGNASASA [HC995] please
middle

Do the same for CAQGWGPISYAGNASASA [HC394] please
middle

Do the same for CALSSRTARSAGNASASA [FS-828] please
upper

Do the same for CAYRRRPPRSAGNASASA [FS-111] please
middle

Do the same for CAPFPRDVGKAGNASASA [FS-2542] please
middle

Do the same for CADRLQVLDSAGNASASA [HC1398] please
middle

Do the same for CATERLYVGGAGNASASA [HC1499] please
lower

Do the same for CARKIRTVGNAGNASASA [FS-1726] please
upper

Do the same for CAHPLRPAREAGNASASA [FS-1210] please
upper

Do the same for CATIMAKNEVAGNASASA [HC1439] please
middle

Do the same for CAYRRRRSRSAGNASASA [FS-1296] please
upper

Do the same for CAEVRTSTWVAGNASASA [HC2193] please
lower

Do the same for CARKRRQSEGAGNASASA [FS-1733] please
upper

Do the same for CAMTTDNLKCAGNASASA [HC1213] please
lower

Do the same for CAEITTPCSGAGNASASA [HC1964] please
lower

Do the same for CAYPVREKKDAGNASASA [FS-739] please
lower

Do the same for CAFLTRVEAQAGNASASA [HC585] please
lower

Do the same for CAEVPCHLPSAGNASASA [HC2365] please
middle
